Test system: SW-620
METHOD: NCI tumour cell line growth inhibition, 48 h
The source made the active and inactive calls. Rule as the data show it: active = GI50 up to about 1.1 µM and inactive = higher.
QUANTITY: GI50

COMPOUND | ASSAY SYSTEM | GI50
COc1cc(C(=O)N(C(=S)OC23CC4CC(CC(C4)C2)C3)c2ccccc2)cc(OC)c1OC | SW-620 | 22.7 µM (inactive)
Cc1cc2c(c(C(=O)O)c1C)-c1cccc(F)c1C2=O | SW-620 | > 100 µM (inactive)
COc1ncnc2c1cnn2Cc1cn(COCC(O)CO)nn1 (stereo unspecified) | SW-620 | > 100 µM (inactive)

Please state recorded GI50 (tested on SW-620) of CC[C@@H]1CC[C@@H]2[C@H](CC[C@]3(C)[C@@H](O)CC[C@@H]23)[C@H]1CO > 100 µM (inactive)

Now the compound CCOc1ccc(NC(=S)N/C=C(/C(C)=O)C(=O)Nc2ccccc2C)cc1 > 100 µM (inactive)

====

Listed molecules paired with reported GI50
System: M14
METHOD: NCI tumour cell line growth inhibition, 48 h
Active and inactive are the calls of the source. No stated cut-off is given here; in the data, active = GI50 up to about 1.1 µM and inactive = higher.

MOLECULE | GI50
c1ccc2c(c1)CC1c3[nH]c4ccccc4c3CCN21 (stereo unspecified) | > 10 µM (inactive)

// lookup GI50 for C=CCO/N=C/c1cc(/N=C(/S)c2ccoc2C)ccc1Cl 16.6 µM (inactive)

Now the molecule CSC12c3cc(C)n(-c4ccccc4)c3CC(C)(C)CN1C(=O)C2Oc1ccccc1 (stereo unspecified) 12.4 µM (inactive)

Now the molecule O=C(O)c1cccc2c1/C(=N/Nc1ccccc1)CC2 16.6 µM (inactive)

Now the molecule C[Si](C)(C)/C=C\CCCN1C(=O)CCC1=O > 100 µM (inactive)

Now the molecule O=C1NC(=O)C(C(CC(=O)c2ccc([N+](=O)[O-])cc2)c2ccccc2)C(=O)N1 (stereo unspecified) > 100 µM (inactive)

====

Test system: DLD-1
METHOD: NCI tumour cell line growth inhibition, 48 h
Activity calls are given as the source filed them. No stated cut-off is given here; in the data, active = GI50 up to about 1.1 µM and inactive = higher.
Pick from active, inactive when you respond.

MOLECULE | QUALITATIVE LABEL
CCCCCCCCCCCCCC(=O)O[C@H]1CC[C@H](NC(=O)[C@H](OC)[C@H](O)[C@@H](O)[C@H](O)/C=C/C(C)C)C(=O)N(C)C1 [BENGAMIDE B] | active
CS(=O)(=O)NNS(=O)(=O)c1ccccc1 | inactive
NC1C[C@H](n2cc(/C=C/Br)c(=O)[nH]c2=O)C[C@@H]1CO (stereo partly specified) | inactive
COc1cccc(-c2cc(O)c3cc4c(cc3n2)OCO4)c1 | active
Cc1nc2ccccc2c(=O)n1/N=C(\N=N\c1ccc(Cl)cc1)c1cccc(-c2ccco2)c1 | inactive
Nc1ncnc2c1ncn2C1OC(CSC(F)(F)F)C(O)C1O (stereo unspecified) | inactive
Fc1ccc(C2SCc3nc4ccccc4n32)cc1F (stereo unspecified) | inactive
CCOc1ccc(NC(=O)CC2SC(Nc3ccc(C)cc3)=NC2=O)cc1 (stereo unspecified) | inactive
CN(C)C(=O)Oc1c(Br)cc(Br)cc1C(=O)OCc1ccccc1 | inactive
Cc1cccc(C)c1NC(=O)CCCC(=O)C1CC(=O)CCC1=O (stereo unspecified) | inactive

Recorded call for N=C(N)NCCCC(NCc1c2ccccc2nc2ccccc12)C(=O)O (stereo unspecified) ? inactive

Now the molecule CC(=O)CC(=O)ON(C)C(C)=O inactive

Now the molecule COc1ccc2c(c1)CC[C@@H]1C2CC[C@]2(C)C(=N\O)/C(=N/O)CC12 (stereo partly specified) inactive

Now the molecule COc1cc(/C=C2\[C@H]3c4c(c(OC)c(C)c(OC)c4OC)C[C@@H](C(=O)N2Cc2ccccc2)N3C(=O)OC(C)C)c(OC)c(C)c1OC inactive

Now the molecule O=C(O)/C(=C\c1ccccc1Cl)S(=O)(=O)c1ccccc1 inactive

Measured values drawn from ChEMBL document CHEMBL1201862 for this set.
